Tested on: fibrin-induced microglia activation
Assay: Image-based assay of fibrin-induced microglia activation (HTS and dose response)
Format: cell-based, rat
Condition set: 10 µM
Structures can show the parent of a compound that is named as a salt.
Threshold check on Fibrin % inhibition: at or above -10% gives rule met, strictly below gives rule not met.

Below, 5 compounds whose answers are already recorded.
CN[C@H](CC(C)C)C(=O)N[C@H]1C(=O)N[C@@H](CC(N)=O)C(=O)N[C@H]2C(=O)N[C@H]3C(=O)N[C@H](C(=O)N[C@H](C(=O)O)c4cc(O)cc(O)c4-c4cc3ccc4O)[C@H](O)c3ccc(c(Cl)c3)Oc3cc2cc(c3O[C@@H]2O[C@H](CO)[C@@H](O)[C@H](O)[C@H]2O[C@H]2C[C@](C)(N)[C@H](O)[C@H](C)O2)Oc2ccc(cc2Cl)[C@H]1O [Vancomycin]: rule met
O=P1(N(CCCl)CCCl)NCCCO1 (stereo not drawn): rule not met
Cn1c(=O)c2[nH]cnc2n(C)c1=O [Aminophylline, Theophylline]: rule met
CO[C@@]12[C@H](COC(N)=O)C3=C(C(=O)C(C)=C(N)C3=O)N1C[C@@H]1N[C@@H]12 [Mitomycin C, Mitomycin]: rule met
C#CCN(C)CCCOc1ccc(Cl)cc1Cl.Cl: rule not met

Does Fibrin % inhibition meet or surpass -10% for C[N+](C)(C)CC(=O)O [Trimethyl Glycine] ?
rule not met

Next compound up: CC[C@]1(O)C[C@@H]2CN(CCc3c([nH]c4ccccc34)[C@@](C(=O)OC)(c3cc4c(cc3OC)N(C)[C@H]3[C@@](O)(C(N)=O)[C@H](O)[C@]5(CC)C=CCN6CC[C@]43[C@@H]65)C2)C1 [Vindesine, Vindesine Sulfate]
rule met

// query: CC(C)NCC(O)COc1cccc2ccccc12 (stereo not drawn)
rule not met

Likewise for Cc1ccc(-c2nc3ccc(C)cn3c2CC(=O)N(C)C)cc1 [Zolpidem, Zolpidem Tartrate] ?
rule not met

###

Test system: fibrin- and LPS-induced microglia activation
Assay: cells
Type: cell-based, rat
Condition set: quadrant by fibrin and LPS inhibition in HTS of 1907 compounds
Assay metric: Quadrant (FIG. 5b)

Some compounds with known Quadrant (FIG. 5b) results, for comparison:
CC(=O)O[C@@]12CO[C@@H]1C[C@H](O)[C@@]1(C)C(=O)[C@H](O)C3=C(C)[C@@H](OC(=O)[C@H](O)[C@@H](NC(=O)OC(C)(C)C)c4ccccc4)C[C@@](O)([C@@H](OC(=O)c4ccccc4)[C@H]21)C3(C)C [Docetaxel, reference compound]: Q3
CC/C=C\C/C=C\C/C=C\C/C=C\C/C=C\CCCC(=O)OCC: Q4
CCC(C)n1ncn(-c2ccc(N3CCN(c4ccc(OCC5COC(Cn6cncn6)(c6ccc(Cl)cc6Cl)O5)cc4)CC3)cc2)c1=O (stereo not drawn): Q4
Nc1nc2ncc(CNc3ccc(C(=O)N[C@@H](CCC(=O)O)C(=O)O)cc3)nc2c(=O)[nH]1: Q4
O=C(c1ccc(OCCN2CCCCC2)cc1)c1c(-c2ccc(O)cc2)sc2cc(O)ccc12: Q1

Can you share its Quadrant (FIG. 5b)? I mean this compound: `CC[C@@H](CO)NC(=O)[C@@H]1C=C2c3cccc4[nH]cc(c34)C[C@H]2N(C)C1`
Q4

###

Please provide measured LPS % cell toxicity for the entries that follow.
Tested on: primary rat microglia
Condition set: rat
Structures can show the parent of a compound that is named as a salt.
Give bare numbers, in %.

Solved entries (count: 5):
CCCC(CCC)C(=O)O: 0
OCc1cc(C(O)CNCCCCCCOCCCCc2ccccc2)ccc1O (centres unmarked) [Salmeterol, reference compound]: 1
COc1cc2nc(N3CCN(C(=O)C4CCCO4)CC3)nc(N)c2cc1OC (centres unmarked): 0
CC1CC(OC(=O)C(O)c2ccccc2)CC(C)(C)C1 (centres unmarked) [Cyclandelate]: 0
CCCCCCCCCCCCCCOS(=O)(=O)[O-].[Na+] [Sodium Tetradecyl Sulfate]: 0

Provide each entry's LPS % cell toxicity from the list below.
1. Cc1cccc(C(=O)O)c1O [Hydroxytoluic acid, reference compound]
2. NC(=O)C1(N2CCCCC2)CCN(CCCC(=O)c2ccc(F)cc2)CC1

[0, 0]

Below are 3 compounds. Give each one its LPS % cell toxicity.
1. COC1=C(OC)C(=O)C(CCCCCCCCCCO)=C(C)C1=O
2. CN1C2CCCC1CC(NC(=O)c1nn(C)c3ccccc13)C2 (centres unmarked) [Granisetron Hydrochloride]
3. CC(C)(S)[C@@H](N)C(=O)O

[0, 0, 0]

Give me LPS % cell toxicity for each of these compounds, listed below.
1. Nc1c(Br)cc(Br)cc1CN[C@H]1CC[C@H](O)CC1 [Ambroxol Hydrochloride]
2. O=c1[nH]c(=O)n(Cl)c(=O)n1Cl
3. Clc1ccc(CO/N=C(\Cn2ccnc2)c2ccc(Cl)cc2Cl)c(Cl)c1
4. Cc1cc2c(s1)Nc1ccccc1N=C2N1CCN(C)CC1

1: 0; 2: 0; 3: 1; 4: 0

// each listed compound needs a value for LPS % cell toxicity
1. Nc1ccn([C@H]2CC[C@@H](CO)O2)c(=O)n1
2. C=CCN1CC[C@]23c4c5ccc(O)c4O[C@H]2C(=O)CC[C@@]3(O)[C@H]1C5 [Naloxone Hydrochloride]
3. C(=C\c1ccccc1)/CN1CCN(C(c2ccccc2)c2ccccc2)CC1
4. CCOP(=S)(OCC)Oc1nc(Cl)c(Cl)cc1Cl
5. CC(=O)Oc1cccc(C(=O)O)c1OC(C)=O
6. CN(C)[C@@H]1C(O)=C(C(N)=O)C(=O)[C@@]2(O)C(O)=C3C(=O)c4c(O)cccc4[C@@](C)(O)[C@H]3C[C@@H]12
7. Nc1ccn([C@@H]2O[C@H](CO)[C@@H](O)[C@@H]2O)c(=O)n1

[0, 0, 0, 0, 0, 0, 0]

###

Tested on: fibrin- and LPS-induced microglia activation
Assay: cells
Format: cell-based, rat
Condition set: HTS of 1907 compounds, quadrant by fibrin and LPS inhibition
Where a name gives a salt, the structure may show the parent alone.
Assay metric: Quadrant (FIG. 5b)

Here's what some known entries look like.
CC(=O)O[C@@]12CO[C@@H]1C[C@H](O)[C@@]1(C)C(=O)[C@H](O)C3=C(C)[C@@H](OC(=O)[C@H](O)[C@@H](NC(=O)OC(C)(C)C)c4ccccc4)C[C@@](O)([C@@H](OC(=O)c4ccccc4)[C@H]21)C3(C)C [Docetaxel, reference compound]: Q3
[H]/N=C(/NCCCCC)N/N=C/c1c[nH]c2ccc(OC)cc12 [Tegaserod maleate, reference compound]: Q2
COC(=O)Nc1nc2ccc(C(=O)c3ccccc3)cc2[nH]1 [Mebendazole, reference compound]: Q2
Oc1cc(Cl)ccc1Oc1ccc(Cl)cc1Cl [Triclosan]: Q4
CN1[C@@H]2CC[C@H]1C[C@@H](OC(=O)c1c[nH]c3ccccc13)C2 [Tropisetron]: Q4
Nc1ccc(S(=O)(=O)NC(=O)c2ccccc2)cc1 [Sulfabenzamide]: Q4
COc1cc2c3cc1Oc1cc(ccc1O)C[C@@H]1c4c(cc(OC)c(O)c4Oc4ccc(cc4)C[C@@H]3N(C)CC2)CC[N+]1(C)C [Tubocurarine]: Q4
COc1ccc(NS(=O)(=O)c2ccc(N)cc2)nn1 [Sulfamethoxypyridazine]: Q4

For each of the items listed, what is its Quadrant (FIG. 5b)?
1. CC(C)(C)NC[C@H](O)COc1nsnc1N1CCOCC1 [Timolol]
2. CCC(=O)O[C@H]1CC[C@H]2[C@@H]3CCC4=CC(=O)CC[C@]4(C)[C@H]3CC[C@]12C [Testosterone Propionate]
3. COc1cnc(NS(=O)(=O)c2ccc(N)cc2)nc1 [Sulfameter]
4. NC[C@H]1O[C@H](O[C@H]2[C@H](O)[C@@H](O[C@H]3O[C@H](CO)[C@@H](O)[C@H](N)[C@H]3O)[C@H](N)C[C@@H]2N)[C@H](N)C[C@@H]1O [Tobramycin]
5. CCCCCCc1ccc(O)cc1O.Nc1c2ccccc2nc2ccccc12 [Acrisorcin, reference compound]

1: Q4; 2: Q4; 3: Q4; 4: Q4; 5: Q2

Answer for every listed entry: what is its Quadrant (FIG. 5b)? The entries follow.
1. O=P(O)(O)C(O)(Cc1cccnc1)P(=O)(O)O [Risedronate sodium, reference compound]
2. CC(=O)O[C@H]1C[C@@]2(C)[C@@H](C[C@@H](O)[C@H]3[C@@]4(C)CC[C@@H](O)[C@@H](C)[C@@H]4CC[C@@]32C)/C1=C(\CCC=C(C)C)C(=O)O [Fusidic acid, reference compound]

["Q3", "Q2"]

###

System: fibrin- and LPS-induced microglia activation
Assay: cells
Assay type: cell-based, rat
Condition set: quadrant by fibrin and LPS inhibition in HTS of 1907 compounds
Where a name gives a salt, the structure may show the parent alone.
Assay metric: Quadrant (FIG. 5b)

Reference set (5 entries):
CC1CCc2c(N3CCC(O)CC3)c(F)cc3c(=O)c(C(=O)O)cn1c23 (stereo not drawn): Q4
O=C(O)c1ccccc1Nc1cccc(C(F)(F)F)c1: Q4
COC(=O)C1=C(C)NC(C)=C(C(=O)OCCN2CCN(C(c3ccccc3)c3ccccc3)CC2)C1c1cccc([N+](=O)[O-])c1 (stereo not drawn) [Manidipine Hydrochloride]: Q4
C[C@]12CC[C@@H]3c4ccc(O)cc4CC[C@H]3[C@@H]1CCC2=O: Q2
CCCCCCc1ccc(O)cc1O.Nc1c2ccccc2nc2ccccc12 [Acrisorcin, reference compound]: Q2

Record Quadrant (FIG. 5b) for all entries; do not skip any.
1. C/C(=C\C(=O)OCCCCCCCCC(=O)O)C[C@@H]1OC[C@H](C[C@@H]2O[C@H]2[C@@H](C)[C@H](C)O)[C@@H](O)[C@H]1O
2. CCn1cc(C(=O)O)c(=O)c2cc(F)c(N3CCNCC3)cc21
3. O=C(O)CCCc1ccccc1
4. CN1C2CCCC1CC(NC(=O)c1nn(C)c3ccccc13)C2 (stereo not drawn) [Granisetron Hydrochloride]
5. CN(C)[C@@H]1C(O)=C(C(N)=O)C(=O)[C@@]2(O)C(O)=C3C(=O)c4c(O)cccc4[C@@](C)(O)[C@H]3[C@H](O)[C@@H]12
6. COC(=O)[C@@H]1CC2=CC(=O)CC[C@]2(C)[C@@]23O[C@@H]2C[C@@]2(C)[C@@H](CC[C@@]24CCC(=O)O4)[C@H]13 [Eplerenore, reference compound]
7. Nc1nc(O)c2ncn(COC(CO)CO)c2n1

Q4
Q4
Q4
Q4
Q4
Q2
Q4
